- target-desc: plasma kallikrein (PK) (Homo sapiens)
- Sequence (P03952 391-638): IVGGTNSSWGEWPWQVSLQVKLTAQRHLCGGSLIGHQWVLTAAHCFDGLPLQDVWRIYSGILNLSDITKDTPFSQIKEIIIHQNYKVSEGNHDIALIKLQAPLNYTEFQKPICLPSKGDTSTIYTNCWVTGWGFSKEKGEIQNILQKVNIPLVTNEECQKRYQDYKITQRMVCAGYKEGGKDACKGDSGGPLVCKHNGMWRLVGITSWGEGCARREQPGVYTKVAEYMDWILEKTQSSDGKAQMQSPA
- Sequence (P03952 20-390): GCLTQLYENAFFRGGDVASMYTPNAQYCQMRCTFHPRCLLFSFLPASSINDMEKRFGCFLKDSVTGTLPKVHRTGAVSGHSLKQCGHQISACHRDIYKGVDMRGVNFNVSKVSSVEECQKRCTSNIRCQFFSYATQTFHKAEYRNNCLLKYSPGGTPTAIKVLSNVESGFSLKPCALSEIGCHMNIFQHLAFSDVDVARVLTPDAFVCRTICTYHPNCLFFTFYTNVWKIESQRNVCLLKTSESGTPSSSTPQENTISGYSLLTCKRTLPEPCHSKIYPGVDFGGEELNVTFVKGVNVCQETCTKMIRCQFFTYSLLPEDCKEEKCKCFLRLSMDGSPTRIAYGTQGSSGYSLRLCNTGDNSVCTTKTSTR
- procedure-text: Selectivity: inhibition of plasma kallikrein
- condition-notes: read-out: PK K i
- Experimental: For these three proteases a selectivity index (SI=K i(protease)/K i(plasmin)) was calculated, which is provided in brackets after the inhibition constants (Table 3). The measurements with the related trypsin‐like serine proteases trypsin, plasma kallikrein, factor XIa, thrombin, activated protein Ca and factor Xa used in selectivity studies were performed as described previously.[11, 12]
observed-property: pKi
Lab note: report pKi as minus log10 of the concentration in molar units, number only.

| molecule | pKi |
| --- | --- |
| Cc1ccc2cc1NC(=O)CNC(=O)CCNC(=O)c1ccc3cc(ccc3c1)NC(=O)[C@@H](NC(=O)[C@H]1CC[C@H](CN)CC1)Cc1ccc-2cc1 | 6.81 |

The reported plasma kallikrein (PK) (Homo sapiens) pKi of Cc1ccc2cc1NC(=O)C(CCc1ccccc1)NC(=O)CCCNC(=O)Cc1ccc(cc1)NC(=O)C(NC(=O)C1CCC(CN)CC1)Cc1ccc-2cc1 (stereo not drawn) is 7.17

Response field pKi (plasma kallikrein (PK) (Homo sapiens)) for item `NC[C@H]1CC[C@H](C(=O)N[C@H]2Cc3ccc(cc3)-c3ccc(C(=O)Nc4ccccc4)c(c3)NC(=O)CNC(=O)CCCNC(=O)Cc3ccc(cc3)NC2=O)CC1` : 7.82
